Values compiled from paper PMC4402678.

EXPERIMENTAL DETAILS: Biodistribution in AR42J tumor-bearing nude mice
TEST PARAMETERS: mouse, blood, intravenous, Biodistribution Blood, Competition, 60 min p.i., coinjection of 20 μg/mouse unlabeled TOC, n = 3
OBSERVABLE: tissue uptake at 1 h (%ID/g)

{"MOLECULE": "C[C@@H](O)[C@H](NC(=O)[C@@H]1CSSC[C@H](NC(=O)[C@@H](Cc2ccccc2)NC(=O)CN2CCN(CC(=O)O)CCN(CC(=O)O)CCN(CC(=O)O)CC2)C(=O)N[C@@H](Cc2ccc(O)c(I)c2)C(=O)N[C@H](Cc2c[nH]c3ccccc23)C(=O)N[C@@H](CCCCN)C(=O)N[C@@H]([C@@H](C)O)C(=O)N1)C(=O)O [[^68Ga]HA-DOTATATE, [^68Ga]DOTA-3-iodo-Tyr^3-octreotate, metal not drawn]", "OBSERVABLE": "tissue uptake at 1 h", "REPORTED VALUE": 2.5}

====

EXPERIMENTAL DETAILS: Biodistribution in AR42J tumor-bearing nude mice
TEST PARAMETERS: mouse, intestine, intravenous, Biodistribution Intestine, Competition, 60 min p.i., coinjection of 20 μg/mouse unlabeled TOC, n = 3

{"COMPOUND": "C[C@@H](O)[C@H](NC(=O)[C@@H]1CSSC[C@H](NC(=O)[C@@H](Cc2ccccc2)NC(=O)CN2CCN(CC(=O)O)CCN(CC(=O)O)CCN(CC(=O)O)CC2)C(=O)N[C@@H](Cc2ccc(O)c(I)c2)C(=O)N[C@H](Cc2c[nH]c3ccccc23)C(=O)N[C@@H](CCCCN)C(=O)N[C@@H]([C@@H](C)O)C(=O)N1)C(=O)O [[^68Ga]HA-DOTATATE, [^68Ga]DOTA-3-iodo-Tyr^3-octreotate, metal not drawn]", "tissue uptake at 1 h, %ID/g": 0.8}

====

EXPERIMENTAL DETAILS: Biodistribution in AR42J tumor-bearing nude mice
TEST PARAMETERS: mouse, heart, iv, 25 pmol/mouse, Biodistribution Heart, Control, 60 min p.i., tracer only, n = 5

{"MOLECULE": "C[C@@H](O)[C@H](NC(=O)[C@@H]1CSSC[C@H](NC(=O)[C@@H](Cc2ccccc2)NC(=O)CN2CCN(CC(=O)O)CCN(CC(=O)O)CCN(CC(=O)O)CC2)C(=O)N[C@@H](Cc2ccc(O)c(I)c2)C(=O)N[C@H](Cc2c[nH]c3ccccc23)C(=O)N[C@@H](CCCCN)C(=O)N[C@@H]([C@@H](C)O)C(=O)N1)C(=O)O [[^68Ga]HA-DOTATATE, [^68Ga]DOTA-3-iodo-Tyr^3-octreotate, metal not drawn]", "UNITS TEXT": "%ID/g", "tissue uptake at 1 h": 0.5}

====

EXPERIMENTAL DETAILS: Biodistribution in AR42J tumor-bearing nude mice
TEST PARAMETERS: mouse, muscle, intravenous, Biodistribution Muscle, Competition, 60 min p.i., coinjection of 20 μg/mouse unlabeled TOC, n = 3

{"COMPOUND": "C[C@@H](O)[C@H](NC(=O)[C@@H]1CSSC[C@H](NC(=O)[C@@H](Cc2ccccc2)NC(=O)CN2CCN(CC(=O)O)CCN(CC(=O)O)CCN(CC(=O)O)CC2)C(=O)N[C@@H](Cc2ccc(O)c(I)c2)C(=O)N[C@H](Cc2c[nH]c3ccccc23)C(=O)N[C@@H](CCCCN)C(=O)N[C@@H]([C@@H](C)O)C(=O)N1)C(=O)O [[^68Ga]HA-DOTATATE, [^68Ga]DOTA-3-iodo-Tyr^3-octreotate, metal not drawn]", "tissue uptake at 1 h [%ID/g]": 0.6}

====

EXPERIMENTAL DETAILS: Biodistribution in AR42J tumor-bearing nude mice
TEST PARAMETERS: mouse, in vivo, iv, Biodistribution AR42J tumor, Control, 60 min p.i., tracer only, n = 5

{"COMPOUND": "C[C@@H](O)[C@H](NC(=O)[C@@H]1CSSC[C@H](NC(=O)[C@@H](Cc2ccccc2)NC(=O)CN2CCN(CC(=O)O)CCN(CC(=O)O)CCN(CC(=O)O)CC2)C(=O)N[C@@H](Cc2ccc(O)cc2)C(=O)N[C@H](Cc2c[nH]c3ccccc23)C(=O)N[C@@H](CCCCN)C(=O)N[C@@H]([C@@H](C)O)C(=O)N1)C(=O)O [[^68Ga]DOTATATE, [^68Ga]DOTA-Tyr^3-octreotate, metal not drawn]", "tissue uptake at 1 h (%ID/g)": 24.1}

====

EXPERIMENTAL DETAILS: Biodistribution in AR42J tumor-bearing nude mice
TEST PARAMETERS: mouse, in vivo, Biodistribution Muscle, Competition, 60 min p.i., coinjection of 20 μg/mouse unlabeled TOC, n = 3
OBSERVABLE: tissue uptake at 1 h (%ID/g)

{"COMPOUND": "C[C@@H](O)[C@H](NC(=O)[C@@H]1CSSC[C@H](NC(=O)[C@@H](Cc2ccccc2)NC(=O)CN2CCN(CC(=O)O)CCN(CC(=O)O)CCN(CC(=O)O)CC2)C(=O)N[C@@H](Cc2ccc(O)cc2)C(=O)N[C@H](Cc2c[nH]c3ccccc23)C(=O)N[C@@H](CCCCN)C(=O)N[C@@H]([C@@H](C)O)C(=O)N1)C(=O)O [[^68Ga]DOTATATE, [^68Ga]DOTA-Tyr^3-octreotate, metal not drawn]", "OBSERVABLE": "tissue uptake at 1 h", "UNITS TEXT": "%ID/g", "REPORTED VALUE": 0.2}

====

EXPERIMENTAL DETAILS: Biodistribution in AR42J tumor-bearing nude mice
TEST PARAMETERS: mouse, kidney, iv, 25 pmol/mouse, Biodistribution Kidney, Control, 60 min p.i., tracer only, n = 5
OBSERVABLE: tissue uptake at 1 h (%ID/g)

{"MOLECULE": "C[C@@H](O)[C@H](NC(=O)[C@@H]1CSSC[C@H](NC(=O)[C@@H](Cc2ccccc2)NC(=O)CN2CCN(CC(=O)O)CCN(CC(=O)O)CCN(CC(=O)O)CC2)C(=O)N[C@@H](Cc2ccc(O)c(I)c2)C(=O)N[C@H](Cc2c[nH]c3ccccc23)C(=O)N[C@@H](CCCCN)C(=O)N[C@@H]([C@@H](C)O)C(=O)N1)C(=O)O [[^68Ga]HA-DOTATATE, [^68Ga]DOTA-3-iodo-Tyr^3-octreotate, metal not drawn]", "UNITS TEXT": "%ID/g", "REPORTED VALUE": 5.3}

====

EXPERIMENTAL DETAILS: Biodistribution in AR42J tumor-bearing nude mice
TEST PARAMETERS: mouse, in vivo, iv, Biodistribution Intestine, Control, 60 min p.i., tracer only, n = 5

{"COMPOUND": "C[C@@H](O)[C@H](NC(=O)[C@@H]1CSSC[C@H](NC(=O)[C@@H](Cc2ccccc2)NC(=O)CN2CCN(CC(=O)O)CCN(CC(=O)O)CCN(CC(=O)O)CC2)C(=O)N[C@@H](Cc2ccc(O)cc2)C(=O)N[C@H](Cc2c[nH]c3ccccc23)C(=O)N[C@@H](CCCCN)C(=O)N[C@@H]([C@@H](C)O)C(=O)N1)C(=O)O [[^68Ga]DOTATATE, [^68Ga]DOTA-Tyr^3-octreotate, metal not drawn]", "tissue uptake at 1 h [%ID/g]": 2.7}

====

EXPERIMENTAL DETAILS: Biodistribution in AR42J tumor-bearing nude mice
TEST PARAMETERS: mouse, in vivo, iv, Biodistribution Kidney, Control, 60 min p.i., tracer only, n = 5
OBSERVABLE: tissue uptake at 1 h

{"COMPOUND": "C[C@@H](O)[C@H](NC(=O)[C@@H]1CSSC[C@H](NC(=O)[C@@H](Cc2ccccc2)NC(=O)CN2CCN(CC(=O)O)CCN(CC(=O)O)CCN(CC(=O)O)CC2)C(=O)N[C@@H](Cc2ccc(O)cc2)C(=O)N[C@H](Cc2c[nH]c3ccccc23)C(=O)N[C@@H](CCCCN)C(=O)N[C@@H]([C@@H](C)O)C(=O)N1)C(=O)O [[^68Ga]DOTATATE, [^68Ga]DOTA-Tyr^3-octreotate, metal not drawn]", "OBSERVABLE": "tissue uptake at 1 h", "REPORTED VALUE": "3.9 %ID/g"}

====

EXPERIMENTAL DETAILS: Biodistribution in AR42J tumor-bearing nude mice
TEST PARAMETERS: mouse, in vivo, iv, Biodistribution Adrenals, Control, 60 min p.i., tracer only, n = 5

{"COMPOUND": "C[C@@H](O)[C@H](NC(=O)[C@@H]1CSSC[C@H](NC(=O)[C@@H](Cc2ccccc2)NC(=O)CN2CCN(CC(=O)O)CCN(CC(=O)O)CCN(CC(=O)O)CC2)C(=O)N[C@@H](Cc2ccc(O)cc2)C(=O)N[C@H](Cc2c[nH]c3ccccc23)C(=O)N[C@@H](CCCCN)C(=O)N[C@@H]([C@@H](C)O)C(=O)N1)C(=O)O [[^68Ga]DOTATATE, [^68Ga]DOTA-Tyr^3-octreotate, metal not drawn]", "tissue uptake at 1 h": "5.1 %ID/g"}
